Biological target: T1, 15N-labeled PHear (NECAP 1 PHear domain, GST cleaved) (mouse, UniProt Q9CR95 1-133)
T1 chain: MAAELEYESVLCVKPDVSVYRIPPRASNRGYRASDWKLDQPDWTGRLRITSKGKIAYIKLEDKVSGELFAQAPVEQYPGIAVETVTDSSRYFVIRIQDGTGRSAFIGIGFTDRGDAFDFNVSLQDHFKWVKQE
Experiment: NMR; L47 peak
Where no end group is shown, it is not given here.
endpoint.label: Kd (µM)

- Ac-SQGDLLGDLLNLDLPPVN (peptide from the linker of β2-adaptin; the printed peptide has no G there; also called unlabeled β2-linker; source: synthetic peptide (Sheldon Biotechnology Center, McGill University), HPLC purified) [β2-linker peptide (Ac-SQGDLLGDLLNLDLPPVN)]: 540
